Each entry below lists one item and its recorded z-score value.
# MEASURED_TARGET: Luciferin 4-monooxygenase (Photinus pyralis)
# ASSAY_METHOD_TEXT: firefly luciferase enzyme inhibitors, primary screen, biochemical, luminescence, purified enzyme, 2006 set (AID 1141);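 note: cell-free assay with purified firefly luciferase at 100 ng per well in PBS; test concentration not given here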
# ASSAY_CONTEXT: SteadyGlo luminescence, 30 min, higher = more signal, called active from +8 up or from −8 down
Number only, no unit.

Previously resolved entries follow.
MOLECULE	z-score
CO[C@@H]1COC(=O)[C@@H](C)COC(=O)[C@@H](C)NC(=O)CC=C[C@@H]1C	0.138
COC(=O)C=CCCc1coc(C=CCNC(=O)OC)n1	0.122
O=c1n(Cc2cc3c(cc2Cl)OCO3)c(=O)n2n1CC[C@@H]1C(=NOCc3ccccc3)[C@H]3O[C@H]3[C@@H](O)[C@@H]12	-1.8

Param request: z-score | system Luciferin 4-monooxygenase (Photinus pyralis) | item `O=c1n(Cc2cc3c(cc2Cl)OCO3)c(=O)n2n1CC[C@@H]1C(=NOC[C@@H](O)COCc3ccco3)[C@H]3O[C@H]3[C@@H](O)[C@@H]12`
-0.357

Param request: z-score | system Luciferin 4-monooxygenase (Photinus pyralis) | item CCOC(=O)[C@H](CC(C)C)NC(=O)CCC1CC(OC(=O)NCc2cccc3ccccc23)CC2(CCCC(COC(=O)NCc3cccc(C(F)(F)F)c3)O2)O1 (stereo partly specified)
0.421

Param request: z-score | system Luciferin 4-monooxygenase (Photinus pyralis) | item `COc1cccc([C@H]2Oc3ccc(OC)cc3C(=NOC[C@@H](C)[C@H](OCc3ccccc3)C(C)C)[C@@H]2O)c1`
-0.0981

Param request: z-score | system Luciferin 4-monooxygenase (Photinus pyralis) | item `CON=CC[C@@H]1C=C[C@H](OC(C)=O)[C@@H](COC(C)=O)O1`
0.218

Param request: z-score | system Luciferin 4-monooxygenase (Photinus pyralis) | item `CC(C)CON=C1C[C@@H](O)[C@@H](O)[C@@H]2[C@@H]3C(=O)N(C(C)(C)C)C(=O)[C@@H]3CC[C@H]12`
0.473

Param request: z-score | system Luciferin 4-monooxygenase (Photinus pyralis) | item `CCO[C@H](c1cc(OC)cc([N+](=O)[O-])c1OC)[C@H](C)C=CCC(=O)OC`
-0.734

###

# MEASURED_TARGET: Pro-neuregulin-1, membrane-bound isoform (Homo sapiens)
# ASSAY_METHOD_TEXT: NRG1 binders on small-molecule microarrays, primary screen, psychiatric disease protein project, biochemical, small-molecule microarray, fluorescence 635/667 (AID 1075);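 note: score combines 667 nm spot fluorescence with signal to noise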
# ASSAY_CONTEXT: NRG1 binding, 635 nm fluorescence, higher = more signal
Each entry below lists one item and its recorded composite z-score value.
Number only, no unit.

MOLECULE	composite z-score
O=C1[C@H]2[C@H]3[C@H](O)[C@H](O)CC(=NOC[C@@H](O)COCc4ccco4)[C@H]3CC[C@H]2C(=O)N1C[C@@H]1CCCO1	-0.285

Output measured composite z-score for this item: CCOC(=O)[C@H](CC(C)C)NC(=O)CCC1CC(OC(=O)NCCc2ccc(F)cc2)CC2(CCCC(COC(=O)NCCc3ccc(Cl)cc3)O2)O1 (some centres not stated)
0.0742

Output measured composite z-score for this item: `CCc1cc2c(nc1CC)CCN(CCC(C)=NO[C@@H](C)c1cn([C@H](CO)Cc3ccccc3)nn1)C2`
0.373

Output measured composite z-score for this item: `CCOC(=O)NN=C1C[C@@H](O)[C@@H](O)[C@@H]2[C@@H]3C(=O)N(c4cccc(Oc5ccccc5)c4)C(=O)[C@@H]3CC[C@@H]12`
0.823

Output measured composite z-score for this item: `COc1ccc(O[C@H]2C=C[C@@H](c3ccccc3)O[C@@H]2CON=C(C)CCC(=O)OC[C@H]2O[C@H](c3ccccc3)C=C[C@@H]2Oc2ccc(OC)cc2)cc1`
-0.496

Output measured composite z-score for this item: `O=C(C=Cc1ccc2c(c1)OCO2)c1ccc(F)cc1`
-0.204

Output measured composite z-score for this item: `COCOc1ccc(Br)cc1C(=O)[C@@H]1O[C@H]1c1cccc(OC)c1`
-0.268
